Assay System: HLA-A1101 (Homo sapiens, UniProt P04439, A114D/D185E/E176A/F33Y/L180Q/S129P/T187R)
Construct: expressed in transfected cells; host or cells: HMy2.CIR
Assay Explanation: cell-based
Assay type: binding
Measurement Context: A1101; peptide 5 μM vs FITC-labeled reference peptide 300 nM, 24 h, 4°C, flow cytometry; read-out: 5-μM inhibition (%)
Where no end group is shown, it is not given here.
Property Name: inhibition at 5 µM (%)
Give bare numbers, in %.

IVIWGKTPK [Peptide P43] | 80.2
ATESIVIWGK [Peptide P36] | 88.3
ITNWLWYIK [Peptide P20] | 69.8
SVIKQACPK [Peptide P21] | 29.7
SILDIRQGPK [Peptide P33] | 83.2

// each sequence listed below needs its inhibition at 5 µM
1. CTPAGYAILK [Peptide P23]
2. FVNTPPLVK [Peptide P44]
3. ELYPLTSLK [Peptide P29]
4. SVQCTHGIK [Peptide P25]
5. GTYTPNGTK [Peptide P22]
6. ATLWCVHQR [Peptide P34]
7. TSLPKQEQK [Peptide P31]

OUT:
1. 70.1
2. 84.5
3. 51.1
4. 61.4
5. 43.2
6. 44
7. 75.2

Please state, for each entry, its recorded inhibition at 5 µM.
1. GSNFTSAAVK [Peptide P37]
2. TVQPIQLPEK [Peptide P35]
3. SVPLDESFRK [Peptide P42]
4. VTENFNMWK [Peptide P26]

OUT:
74
88.7
89.9
86.6

Batch request: inhibition at 5 µM for each of the following sequences.
1. RTAHTNDVK [Peptide P39]
2. TTLFCASDAK [Peptide P28]

OUT:
1: 60.4; 2: 78.4

---

Assay System: HLA-A1101 (Homo sapiens, UniProt P04439, A114D/D185E/E176A/F33Y/L180Q/S129P/T187R)
Construct: expressed in transfected cells; host or cells: HMy2.CIR
Assay Explanation: cell-based
Type: binding
Measurement Context: A1101; peptide 15 μM vs FITC-labeled reference peptide 300 nM, 24 h, 4°C, flow cytometry
Property Name: 15-μM inhibition (%)
Remember to follow the number with its unit.

IVKCFNCGK [Peptide P32] | 36.81%
ASCDQCQLK [Peptide P38] | 33.56%
SSWSNKSQK [Peptide P24] | 36.55%

Next sequence, 15-μM inhibition (%) to be filled in.
IN: # get_value(readout='15-μM inhibition (%)', item= SILRGGKLDK [Peptide P30] )
OUT: 47.09%

---

Assay System: HLA-A0203 (Homo sapiens, UniProt P04439, A173T/D140Y/D185E/D98H/E277Q/G131W/G231S/I119V/I121R/I166T/I218V/L180W/L300P/L318F/N151K/N90K/P208A/P217A/Q86G/Q94H/R138H/R169H/T345S)
Construct: expressed in transfected cells; host or cells: HMy2.CIR
Assay Explanation: cell-based
Format: binding
Measurement Context: A0203; peptide 15 μM vs FITC-labeled reference peptide 300 nM, 24 h, 4°C, flow cytometry; read-out: 15-μM inhibition (%)
Where no end group is shown, it is not given here.
Decision: inhibition at 15 µM >= 60% yields MET, all other cases yield NOT MET.

Answered cases to consult:
IIFAVLSIV [Peptide P5] | MET
SLVDTIAIAV [Peptide P1] | NOT MET
RLINCNTSV [Peptide P6] | MET
GMLMISSAV [Peptide P70] | MET
SLAEGEIII [Peptide P3] | NOT MET

API: the following record is the query input.
IN: Confirm if inhibition at 15 µM reported for the sequence ALFYKLDIV [Peptide P2] is 60% or above.
OUT: MET

---

Exercise: state measured pIC50 for each of the sequences provided.
Assay System: HLA-A2402 (Homo sapiens, UniProt P04439, D101N/D140Y/D185E/E176V/E190D/F33S/G103R/G107R/I119L/I121M/I306V/K335N/L105A/L180Q/L300P/N151K/N90K/Q86E/Q94H/R106L/R138H/R89G/T104I/T345S/V100E/W191G/Y123F)
Assay Explanation: cell-based
Assay type: binding
pIC50: −log10 of the molar value. Where no end group is shown, it is not given here.

Previously resolved entries follow.
NYTNQIYEI [Peptide P47] | > 5.30
MYSPVSILDI [Peptide P53] | > 5.30
FYCNTSGLF [Peptide P46] | > 5.30
YWQATWIPEW [Peptide P60] | > 5.30

Parameters: items (list). Returns: pIC50 for each item.
1. MYSPTSILDI [Peptide P52]
2. FYCNTTKLF [Peptide P49]
3. TYQIYQEPF [Peptide P58]
4. VQMAVFIHNF [Peptide P64]
5. PYNTPVFAI [Peptide P63]
6. WWMEYWQATW [Peptide P57]
7. KYRLKHLVW [Peptide P54]

OUT:
1. 4.82 to 5.30
2. 4.82 to 5.30
3. > 5.30
4. 4.82 to 5.30
5. 4.82 to 5.30
6. 4.82 to 5.30
7. 4.82 to 5.30

---

Assay System: HLA-A0203 (Homo sapiens, UniProt P04439, A173T/D140Y/D185E/D98H/E277Q/G131W/G231S/I119V/I121R/I166T/I218V/L180W/L300P/L318F/N151K/N90K/P208A/P217A/Q86G/Q94H/R138H/R169H/T345S)
Construct: expressed in transfected cells; host or cells: HMy2.CIR
Assay Explanation: cell-based
Type: binding
Measurement Context: A0203; peptide 5 μM vs FITC-labeled reference peptide 300 nM, 24 h, 4°C, flow cytometry
Would you mind telling me the reported 5-μM inhibition (%) of each entry?
A complete answer gives the number followed by the unit.

Field: example entries. Status: answers known.
SLFNTVATL [Peptide P10] | 20.39%
YMLKHLVWA [Peptide P7] | 3.83%
ALQTGTEEL [Peptide P8] | 0.00%

Shifting focus to the sequence that follows.
IN: Param item = QMQEDVISL [Peptide P4] ; retrieve measured 5-μM inhibition (%).
OUT: 0.00%

---

Assay System: HLA-A0101 (Homo sapiens, UniProt P04439, A114D/A174V/A182V/D101N/D185E/E176A/E190D/L180R/Q94H/R68K/S129P/T187R/V100A/V91M/W191G)
Construct: expressed in transfected cells; host or cells: HMy2.CIR
Assay Explanation: Peptide competitive binding assay, HMy2.CIR cells expressing A0101
Measurement Context: read-out: Affinity
Where no end group is shown, it is not given here.
Property Name: IC50

IN: What does the data say about its IC50? Entry: VTDSQYALGI [Peptide P69]
OUT: 5 to 15 µM

---

Assay System: HLA-A0201 (Homo sapiens, UniProt P04439, D140Y/D185E/D98H/E176V/E277Q/G131W/G231S/I119V/I121R/I166T/I218V/L300P/L318F/N151K/N90K/P208A/P217A/Q86G/Q94H/R138H/R169H/T345S)
Construct: expressed in transfected cells; host or cells: HMy2.CIR
Assay Explanation: cell-based
Format: binding
Measurement Context: A0201; peptide 5 μM vs FITC-labeled reference peptide 300 nM, 24 h, 4°C, flow cytometry; read-out: 5-μM inhibition (%)
Where no end group is shown, it is not given here.
Exercise: state measured inhibition at 5 µM for each of the sequences provided.
Answers are plain numbers, in %.

QLPEKDSWTV [Peptide P14] | 27.6

Quick request: inhibition at 5 µM for each listed item, please.
1. SLAEGEIII [Peptide P3]
2. YQYMDDLYV [Peptide P15]
3. ALFYKLDIV [Peptide P2]
4. SLVDTIAIAV [Peptide P1]
5. RLINCNTSV [Peptide P6]

OUT:
[26.1, 56.5, 23.2, 38, 0.13]

Kindly give each listed record's inhibition at 5 µM.
1. ALTDIVPLT [Peptide P12]
2. IIFAVLSIV [Peptide P5]

OUT:
1: 28; 2: 20.6

---

Assay System: HLA-A0201 (Homo sapiens, UniProt P04439, D140Y/D185E/D98H/E176V/E277Q/G131W/G231S/I119V/I121R/I166T/I218V/L300P/L318F/N151K/N90K/P208A/P217A/Q86G/Q94H/R138H/R169H/T345S)
Construct: expressed in transfected cells; host or cells: HMy2.CIR
Assay Explanation: cell-based
Format: binding
Measurement Context: A0201; peptide 15 μM vs FITC-labeled reference peptide 300 nM, 24 h, 4°C, flow cytometry
For each entry below, report its 15-μM inhibition (%) value.
Numbers only, in %.

Here's what some known entries look like.
ALQTGTEEL [Peptide P8] | 14.68
YQLEKDPIV [Peptide P11] | 28.56
QMQEDVISL [Peptide P4] | 44.70
KTIIVHLNK [Peptide P19] | 4.54
ALQDSGSEV [Peptide P18] | 41.90

Below are some sequences; for each one, tell me its 15-μM inhibition (%).
1. SLFNTVATL [Peptide P10]
2. YMLKHLVWA [Peptide P7]

OUT:
[31.36, 16.50]
